- System: Staphylococcus aureus
- Method notes: Potency index, ratio of MIC for norfloxacin to MIC for compound against quinolone-resistant Staphylococcus aureus CCARM 3519 incubated for 24 hrs serial dilution method
- Format: functional
Quantity kind: Ratio
Give your answer as a number; write no unit.

# input # lookup: Ratio of "Cc1nn(-c2ccccc2)c(Oc2ccc(Cl)cc2)c1/C=C1\SC(=S)N([C@@H](Cc2ccccc2)C(=O)O)C1=O"
# output 4

# input Record: "Cc1nn(-c2ccccc2)c(Oc2ccc(F)cc2)c1/C=C1\SC(=S)N([C@@H](Cc2ccccc2)C(=O)O)C1=O"
# output 4

# input Then this compound: "Cc1ccc(Oc2c(/C=C3\SC(=S)N([C@@H](Cc4c[nH]c5ccccc45)C(=O)O)C3=O)c(C)nn2-c2ccccc2)c(C)c1"
# output 4

# input Input "Cc1nn(-c2ccccc2)c(Oc2cccc(Cl)c2)c1/C=C1\SC(=S)N([C@@H](Cc2ccccc2)C(=O)O)C1=O"
# output 4

====

- Method notes: Toxicity against human HeLa cells incubated for 48 hrs by MTT assay
- Type: cell-based
- Details: read-out: IC50
Quantity kind: IC50 at 48 h (µg/mL)
Provide the reading as a plain figure in µg/mL.

# input State the recorded IC50 at 48 h for this entry: "Cc1nn(-c2ccccc2)c(Oc2ccc(Cl)cc2Cl)c1/C=C1\SC(=S)N([C@@H](Cc2c[nH]c3ccccc23)C(=O)O)C1=O"
# output 5.76

====

- Test system: Staphylococcus aureus
- Method notes: Potency index, ratio of MIC for oxacillin to MIC for compound against multidrug-resistant Staphylococcus aureus CCARM 3167 incubated for 24 hrs serial dilution method
- Format: functional
Quantity kind: Ratio
Form field (numeric): enter value without unit.

# input What value of Ratio has been reported for the following compound? "Cc1nn(-c2ccccc2)c(Oc2ccc(Cl)cc2Cl)c1/C=C1\SC(=S)N([C@@H](Cc2c[nH]c3ccccc23)C(=O)O)C1=O"
# output 64

# input Can you check "Cc1nn(-c2ccccc2)c(Oc2ccc(Cl)cc2Cl)c1/C=C1\SC(=S)N([C@@H](Cc2ccccc2)C(=O)O)C1=O" next?
# output 32

# input Then what about the compound "Cc1ccc(Oc2c(/C=C3\SC(=S)N([C@@H](Cc4c[nH]c5ccccc45)C(=O)O)C3=O)c(C)nn2-c2ccccc2)c(C)c1" ?
# output 64

# input Next compound: "Cc1nn(-c2ccccc2)c(Oc2ccc(Br)cc2)c1/C=C1\SC(=S)N([C@@H](Cc2c[nH]c3ccccc23)C(=O)O)C1=O"
# output 64

====

- Tested on: Staphylococcus aureus
- Method notes: Antibacterial activity against quinolone-resistant Staphylococcus aureus CCARM 3505 incubated for 24 hrs serial dilution method
- Format: functional
- Details: CCARM 3505, 24 h
Quantity kind: MIC (µg/mL)
Give just the numeric value; µg/mL need not be written.

# input Quick one: MIC of "Cc1cccc(Oc2c(/C=C3\SC(=S)N([C@@H](Cc4ccccc4)C(=O)O)C3=O)c(C)nn2-c2ccccc2)c1" ?
# output 4

# input Please answer likewise for "Cc1nn(-c2ccccc2)c(Oc2cccc(Cl)c2)c1/C=C1\SC(=S)N([C@@H](Cc2c[nH]c3ccccc23)C(=O)O)C1=O"
# output 4

# input Check "Cc1nn(-c2ccccc2)c(Oc2ccc(Br)cc2)c1/C=C1\SC(=S)N([C@@H](Cc2ccccc2)C(=O)O)C1=O" too.
# output 2

# input Param item: "Cc1nn(-c2ccccc2)c(Oc2ccccc2Cl)c1/C=C1\SC(=S)N([C@@H](Cc2ccccc2)C(=O)O)C1=O"
# output 8

# input Next record, please: "Cc1ccc(Oc2c(/C=C3\SC(=S)N([C@@H](Cc4c[nH]c5ccccc45)C(=O)O)C3=O)c(C)nn2-c2ccccc2)cc1"
# output 4

# input Ok, now "Cc1nn(-c2ccccc2)c(Oc2ccc(Cl)cc2Cl)c1/C=C1\SC(=S)N([C@@H](Cc2c[nH]c3ccccc23)C(=O)O)C1=O"
# output 1

# input And for "Cc1nn(-c2ccccc2)c(Oc2ccc(F)cc2)c1/C=C1\SC(=S)N([C@@H](Cc2ccccc2)C(=O)O)C1=O" ?
# output 8

# input // repeat for "Cc1nn(-c2ccccc2)c(Oc2cccc(Cl)c2)c1/C=C1\SC(=S)N([C@@H](Cc2ccccc2)C(=O)O)C1=O" and report
# output 4

# input Param item: "Cc1nn(-c2ccccc2)c(Oc2ccc(Cl)cc2)c1/C=C1\SC(=S)N([C@@H](Cc2c[nH]c3ccccc23)C(=O)O)C1=O"
# output 2

# input Another molecule to check: "Cc1nn(-c2ccccc2)c(Oc2ccccc2Cl)c1/C=C1\SC(=S)N([C@@H](Cc2c[nH]c3ccccc23)C(=O)O)C1=O"
# output 4

# input Lookup "Cc1nn(-c2ccccc2)c(Oc2ccc(Cl)cc2Cl)c1/C=C1\SC(=S)N([C@@H](Cc2ccccc2)C(=O)O)C1=O"
# output 2

# input Here is the next molecule: "Cc1ccccc1Oc1c(/C=C2\SC(=S)N([C@@H](Cc3c[nH]c4ccccc34)C(=O)O)C2=O)c(C)nn1-c1ccccc1"
# output 8

# input Repeat with "COc1ccc(Oc2c(/C=C3\SC(=S)N([C@@H](Cc4ccccc4)C(=O)O)C3=O)c(C)nn2-c2ccccc2)cc1"
# output 8

# input Please answer likewise for "COc1ccccc1Oc1c(/C=C2\SC(=S)N([C@@H](Cc3ccccc3)C(=O)O)C2=O)c(C)nn1-c1ccccc1"
# output 8

# input # iterate: Cc1onc(-c2ccccc2)c1C(=O)N[C@@H]1C(=O)N2[C@@H]1SC(C)(C)[C@@H]2C(=O)O [OXACILLIN]
# output 1

# input Entry to check: "Cc1ccc(Oc2c(/C=C3\SC(=S)N([C@@H](Cc4ccccc4)C(=O)O)C3=O)c(C)nn2-c2ccccc2)c(C)c1"
# output 2

====

- Method notes: Toxicity against human HeLa cells incubated for 48 hrs by MTT assay
- Assay type: cell-based
Quantity kind: IC50 at 48 h

# input Any idea what IC50 at 48 h was measured for "Cc1nn(-c2ccccc2)c(Oc2ccc(Cl)cc2Cl)c1/C=C1\SC(=S)N([C@@H](Cc2ccccc2)C(=O)O)C1=O" ?
# output 3.54 µg/mL

====

- Test system: Staphylococcus aureus
- Method notes: Antibacterial activity against quinolone-resistant Staphylococcus aureus CCARM 3505 incubated for 24 hrs serial dilution method
- Type: functional
- Details: CCARM 3505, 24 h
Quantity kind: MIC (µg/mL)
Response body: numeric value in µg/mL, unit text excluded.

# input I'd like to know its MIC. The compound in question is "Cc1nn(-c2ccccc2)c(Oc2c(Cl)cccc2Cl)c1/C=C1\SC(=S)N([C@@H](Cc2ccccc2)C(=O)O)C1=O"
# output 8

# input Again, but for "Cc1cccc(Oc2c(/C=C3\SC(=S)N([C@@H](Cc4ccc(O)cc4)C(=O)O)C3=O)c(C)nn2-c2ccccc2)c1"
# output 16

# input Request: "Cc1nn(-c2ccccc2)c(Oc2c(Cl)cccc2Cl)c1/C=C1\SC(=S)N([C@@H](Cc2c[nH]c3ccccc23)C(=O)O)C1=O"
# output 4

# input Can you handle "Cc1nn(-c2ccccc2)c(Oc2ccc(Cl)cc2)c1/C=C1\SC(=S)N([C@@H](Cc2ccc(O)cc2)C(=O)O)C1=O" next?
# output 16

# input Then what about the compound "Cc1ccc(Oc2c(/C=C3\SC(=S)N([C@@H](Cc4ccc(O)cc4)C(=O)O)C3=O)c(C)nn2-c2ccccc2)cc1" ?
# output 16

# input One more compound: "Cc1ccccc1Oc1c(/C=C2\SC(=S)N([C@@H](Cc3ccc(O)cc3)C(=O)O)C2=O)c(C)nn1-c1ccccc1"
# output 32

# input "Cc1ccc(Oc2c(/C=C3\SC(=S)N([C@@H](Cc4ccccc4)C(=O)O)C3=O)c(C)nn2-c2ccccc2)cc1" , same question.
# output 4

# input Please do the same for "Cc1nn(-c2ccccc2)c(Oc2ccc3ccccc3c2)c1/C=C1\SC(=S)N([C@@H](Cc2ccc(O)cc2)C(=O)O)C1=O" as well.
# output 8

# input Same question, "Cc1nn(-c2ccccc2)c(Oc2cccc(C(F)(F)F)c2)c1/C=C1\SC(=S)N([C@@H](Cc2ccc(O)cc2)C(=O)O)C1=O" this time
# output 32

# input One more compound: "Cc1nn(-c2ccccc2)c(Oc2cccc(C(F)(F)F)c2)c1/C=C1\SC(=S)N([C@@H](Cc2c[nH]c3ccccc23)C(=O)O)C1=O"
# output 4

# input Further, for "Cc1nn(-c2ccccc2)c(Oc2ccc(Br)cc2)c1/C=C1\SC(=S)N([C@@H](Cc2c[nH]c3ccccc23)C(=O)O)C1=O" ?
# output 1

# input Now try "Cc1nn(-c2ccccc2)c(Oc2ccc3ccccc3c2)c1/C=C1\SC(=S)N([C@@H](Cc2c[nH]c3ccccc23)C(=O)O)C1=O" .
# output 2

# input // next record "Cc1cccc(Oc2c(/C=C3\SC(=S)N([C@@H](Cc4c[nH]c5ccccc45)C(=O)O)C3=O)c(C)nn2-c2ccccc2)c1"
# output 8

# input Also "Cc1nn(-c2ccccc2)c(Oc2ccc(Cl)cc2Cl)c1/C=C1\SC(=S)N([C@@H](Cc2ccc(O)cc2)C(=O)O)C1=O" , if possible.
# output 8

# input Do the same for "Cc1nn(-c2ccccc2)c(Oc2c(Cl)cccc2Cl)c1/C=C1\SC(=S)N([C@@H](Cc2ccc(O)cc2)C(=O)O)C1=O" please
# output 16

# input Proceed to "Cc1nn(-c2ccccc2)c(Oc2ccc(F)cc2)c1/C=C1\SC(=S)N([C@@H](Cc2c[nH]c3ccccc23)C(=O)O)C1=O"
# output 8

# input Moving on to the next compound: "Cc1nn(-c2ccccc2)c(Oc2cccc(Cl)c2)c1/C=C1\SC(=S)N([C@@H](Cc2ccc(O)cc2)C(=O)O)C1=O"
# output 32

# input And then "Cc1nn(-c2ccccc2)c(Oc2cccc(C(F)(F)F)c2)c1/C=C1\SC(=S)N([C@@H](Cc2ccccc2)C(=O)O)C1=O" , what is it?
# output 4

# input And the next one, "Cc1ccccc1Oc1c(/C=C2\SC(=S)N([C@@H](Cc3ccccc3)C(=O)O)C2=O)c(C)nn1-c1ccccc1" ?
# output 8

# input Entry to check: "Cc1nn(-c2ccccc2)c(Oc2ccc3ccccc3c2)c1/C=C1\SC(=S)N([C@@H](Cc2ccccc2)C(=O)O)C1=O"
# output 2

# input What about "COc1ccccc1Oc1c(/C=C2\SC(=S)N([C@@H](Cc3c[nH]c4ccccc34)C(=O)O)C2=O)c(C)nn1-c1ccccc1" ?
# output 8

# input Now the same for "Cc1nn(-c2ccccc2)c(Oc2ccc(Br)cc2)c1/C=C1\SC(=S)N([C@@H](Cc2ccc(O)cc2)C(=O)O)C1=O"
# output 8

# input Same thing, different compound: "Cc1ccc(Oc2c(/C=C3\SC(=S)N([C@@H](Cc4c[nH]c5ccccc45)C(=O)O)C3=O)c(C)nn2-c2ccccc2)c(C)c1"
# output 1

# input Try the compound "Cc1nn(-c2ccccc2)c(Oc2ccc(Cl)cc2)c1/C=C1\SC(=S)N([C@@H](Cc2ccccc2)C(=O)O)C1=O"
# output 4

# input Check "COc1ccc(Oc2c(/C=C3\SC(=S)N([C@@H](Cc4c[nH]c5ccccc45)C(=O)O)C3=O)c(C)nn2-c2ccccc2)cc1" too.
# output 8

# input Check "Cc1nn(-c2ccccc2)c(Oc2ccccc2)c1/C=C1\SC(=S)N([C@@H](Cc2ccccc2)C(=O)O)C1=O" too.
# output 8

# input Also need "Cc1ccc(Oc2c(/C=C3\SC(=S)N([C@@H](Cc4ccc(O)cc4)C(=O)O)C3=O)c(C)nn2-c2ccccc2)c(C)c1" , thanks.
# output 8

# input Could you do the same for "Cc1nn(-c2ccccc2)c(Oc2ccccc2)c1/C=C1\SC(=S)N([C@@H](Cc2c[nH]c3ccccc23)C(=O)O)C1=O" , please?
# output 8
